target: ERR1 (also known as ERR-α or ERR-1) (Homo sapiens); test: TR-FRET assay: disruption of co-activator peptide (GST-hSRC2) binding to 6His-tagged ERR1 LBD; conditions: 6 nM ERR1LBD, 6 nM GST-SRC-2 peptide, 25° C., 4-18 hours; average of 3 independent experiments
Sequence (P11474 193-421 limits assumed, species assumed): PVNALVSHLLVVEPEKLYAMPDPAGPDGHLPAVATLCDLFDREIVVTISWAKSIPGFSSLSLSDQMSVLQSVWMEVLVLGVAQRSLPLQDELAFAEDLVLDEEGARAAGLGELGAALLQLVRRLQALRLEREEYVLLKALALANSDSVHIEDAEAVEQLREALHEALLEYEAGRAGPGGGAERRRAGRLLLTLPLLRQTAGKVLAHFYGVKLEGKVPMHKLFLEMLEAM
pEC50: −log10 of the molar value.
endpoint.label: pEC50

Please review the following examples before continuing.
INSERT INTO assay_data (compound, recorded_number) VALUES
  ('CN1CCN(CCNC2=NC(=O)/C(=C/c3ccc4c(c3)c(I)nn4Cc3ccc(C(F)(F)F)cc3C(F)(F)F)S2)CC1 [Compound 48]', 8.30),
  ('O=C1N=C(NCCn2ccnc2)S/C1=C\c1ccc2c(cnn2Cc2ccc(Cl)cc2C(F)(F)F)c1 [Compound 24]', 7.92),
  ('Cc1nnc(CNC2=NC(=O)/C(=C/c3ccc4c(cnn4Cc4ccc(C(F)(F)F)cc4C(F)(F)F)c3)S2)[nH]1 [Compound 36]', 8.32),
  ('O=C1N=C(N[C@H]2CCNC2)S/C1=C\c1ccc2c(cnn2Cc2ccc(Cl)cc2C(F)(F)F)c1 [Compound 21]', 8.34),
  ('CN(C)CCCNC1=NC(=O)/C(=C/c2ccc3c(cnn3Cc3ccc(Cl)cc3C(F)(F)F)c2)S1 [Compound 3]', 8.19),
  ('O=C1N=C(NC(CO)CO)S/C1=C\c1ccc2c(cnn2Cc2ccc(Cl)cc2C(F)(F)F)c1 [Compound 38]', 7.25),
  ('NS(=O)(=O)CCNC1=NC(=O)/C(=C/c2ccc3c(cnn3Cc3ccc(C(F)(F)F)cc3C(F)(F)F)c2)S1 [Compound 31]', 7.43),
  ('COc1ccc(Cn2ncc3cc(/C=C4\SC(NC[C@@H](O)CO)=NC4=O)ccc32)c(C(F)(F)F)c1 [Compound 10]', 8.31),
  ('COc1ccc(Cn2ncc3cc(/C=C4\SC(NCCn5cncn5)=NC4=O)ccc32)c(C(F)(F)F)c1 [Compound 18]', 8.74),
  ('O=C1N=C(Nc2cccnc2)S/C1=C\c1ccc2c(cnn2Cc2ccc(Cl)cc2C(F)(F)F)c1 [Compound 20]', 7.71);

[a] COc1ccc(Cn2ncc3cc(/C=C4\SC(NC[C@H](O)CO)=NC4=O)ccc32)c(C(F)(F)F)c1 [Compound 9]
[b] O=C1N=C(NC2CCN(CCO)CC2)S/C1=C\c1ccc2c(cnn2Cc2ccc(Cl)cc2C(F)(F)F)c1 [Compound 22]
[c] O=C1N=C(N[C@@H]2CNC[C@H]2O)S/C1=C\c1ccc2c(cnn2Cc2ccc(Cl)cc2C(F)(F)F)c1 [Compound 47]
Put the items in sequence by pEC50, from largest down. Provide the labels, sequenced as the question asks.
a, b, c

Cited source for all entries: patent US8445690B2
